# experimental_target: Dimeric Human Ang-2FD conjugated to human IgG1 (human)
# Sequence (chain, as listed by the source limits assumed): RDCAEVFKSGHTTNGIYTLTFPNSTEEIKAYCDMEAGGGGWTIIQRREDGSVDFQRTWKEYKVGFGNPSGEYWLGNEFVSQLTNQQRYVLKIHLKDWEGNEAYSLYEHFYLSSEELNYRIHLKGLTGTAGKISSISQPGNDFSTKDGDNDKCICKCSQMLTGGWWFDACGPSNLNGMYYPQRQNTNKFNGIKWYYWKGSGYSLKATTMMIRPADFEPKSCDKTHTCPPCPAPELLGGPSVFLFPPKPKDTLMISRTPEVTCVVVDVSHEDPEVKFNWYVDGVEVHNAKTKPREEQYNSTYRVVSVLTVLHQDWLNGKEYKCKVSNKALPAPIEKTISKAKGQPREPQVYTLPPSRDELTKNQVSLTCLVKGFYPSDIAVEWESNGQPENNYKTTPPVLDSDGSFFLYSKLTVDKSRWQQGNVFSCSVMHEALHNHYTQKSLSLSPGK
# method_description: SPR, antibody captured, room temperature
measurement_kind: T1/2 (min)
Only the number, expressed in min, is required.

binder | T1/2 [min]
H2M743N (antibody, V domains shown) VH: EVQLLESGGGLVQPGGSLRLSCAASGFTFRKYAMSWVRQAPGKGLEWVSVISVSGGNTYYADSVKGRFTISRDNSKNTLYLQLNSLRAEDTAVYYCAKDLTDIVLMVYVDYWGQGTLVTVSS VL: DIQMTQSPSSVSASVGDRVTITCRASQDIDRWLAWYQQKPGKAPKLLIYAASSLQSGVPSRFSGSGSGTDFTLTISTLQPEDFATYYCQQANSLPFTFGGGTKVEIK | 167
H2M742N (antibody, V domains shown) VH: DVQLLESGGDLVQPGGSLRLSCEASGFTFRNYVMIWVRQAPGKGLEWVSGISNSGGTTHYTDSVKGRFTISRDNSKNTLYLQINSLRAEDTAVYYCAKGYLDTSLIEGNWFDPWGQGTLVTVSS VL: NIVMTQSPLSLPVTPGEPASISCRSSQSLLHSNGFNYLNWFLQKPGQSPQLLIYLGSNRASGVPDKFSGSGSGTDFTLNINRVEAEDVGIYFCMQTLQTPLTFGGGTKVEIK | 38
H1M724N (antibody, V domains shown) VH: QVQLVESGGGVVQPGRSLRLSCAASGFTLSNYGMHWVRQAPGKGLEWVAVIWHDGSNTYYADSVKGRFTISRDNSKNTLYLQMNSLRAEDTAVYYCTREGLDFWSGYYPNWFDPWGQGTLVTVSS VL: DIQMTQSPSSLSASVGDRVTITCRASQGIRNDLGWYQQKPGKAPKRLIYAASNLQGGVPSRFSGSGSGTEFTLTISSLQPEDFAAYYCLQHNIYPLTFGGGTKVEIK | 42.7

// below: T1/2 requested for another binder
Which value of T1/2 has been reported for H1M728N (antibody, V domains shown) VH: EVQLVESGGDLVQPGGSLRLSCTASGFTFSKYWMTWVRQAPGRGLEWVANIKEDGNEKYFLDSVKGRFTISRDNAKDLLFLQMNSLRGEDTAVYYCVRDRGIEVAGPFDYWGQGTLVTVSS VL: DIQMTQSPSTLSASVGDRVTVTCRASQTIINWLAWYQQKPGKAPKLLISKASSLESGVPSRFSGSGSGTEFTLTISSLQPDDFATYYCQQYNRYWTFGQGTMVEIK in the records?
58.4
